# experimental-target: human GPR119 (Homo sapiens, UniProt Q8TDV5)
# Sequence (Q8TDV5 1-308 limits assumed): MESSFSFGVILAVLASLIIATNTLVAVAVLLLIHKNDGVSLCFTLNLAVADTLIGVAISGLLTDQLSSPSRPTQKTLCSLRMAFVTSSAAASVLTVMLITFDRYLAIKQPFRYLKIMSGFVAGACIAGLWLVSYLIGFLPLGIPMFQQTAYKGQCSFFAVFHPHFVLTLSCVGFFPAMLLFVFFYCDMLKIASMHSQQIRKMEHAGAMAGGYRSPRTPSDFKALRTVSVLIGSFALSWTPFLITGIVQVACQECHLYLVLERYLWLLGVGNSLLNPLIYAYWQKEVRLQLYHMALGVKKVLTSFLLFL
# assay-name: Measurement of GPR119 signaling (cAMP assay; LANCE kit or HTRF) in HEK293 cells stably transfected with human GPR119
# condition-info: agonist-stimulated cAMP in HEK293 cells expressing human GPR119
pEC50: −log10 of the molar value.
measured-endpoint: pEC50

For orientation, consider the following solved cases.
* CS(=O)(=O)c1ccc(COC[C@@H]2C[C@@H]2C2CCN(C(=O)OC3CCC3)CC2)cc1 [Example 12] | 8.09
* COCc1cnc(N2CCC([C@H]3C[C@H]3COCc3ccc(-n4cnnn4)c(F)c3)CC2)nc1 [Example 132] | 8.96
* CC(=O)CSc1ccc(COC[C@@H]2C[C@@H]2C2CCN(C(=O)OC(C)(C)C)CC2)cc1 [Example 91] | 7.83
* CCCc1cnc(N2CCC([C@H]3C[C@H]3COCc3ccc(S(=O)(=O)CCO)cc3F)CC2)nc1 [Example 84] | 8.89

[a] CCc1cnc(N2CCC([C@H]3C[C@H]3COCc3ccc(S(=O)(=O)CCO)cn3)CC2)nc1 [Example 88]
[b] CC(C)c1noc(N2CCC([C@H]3C[C@H]3COCc3ccc(CC(=O)N4CC(F)C4)cc3F)CC2)n1 [Example 139]
[c] CCCc1cnc(N2CCC([C@H]3C[C@H]3COCc3ccc(S(C)(=O)=O)cc3)CC2)nc1 [Example 22]
Order field: pEC50 | Direction: descending (largest first) Returns: the labels arranged in the requested order. c, b, a
